Molecular target: T1, EGFI-Cr1 R44G (human, UniProt P16422 24-63)
T1 construct: not shown: the constant region of human immunoglobulin gamma 1 heavy chain (Cr1) fused at the C-terminus
T1 chain: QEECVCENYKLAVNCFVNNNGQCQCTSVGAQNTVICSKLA
Experiment: direct ELISA, coated EGFI-Cr1 fusion, 0.1 µg/ml antibody
readout.name: relative binding activity (% of WT) (%)
Answer in %, number only, no unit symbol.

>  <binder>
murine monoclonal antibody 6D11 (antibody, mouse IgG1, V domains shown, Mouse IgG1, kappa, from hybridoma; also called m338-6D11.8) VH: EVQLVESGGDLVKPGGSLKLSCAASGFAFDSYGMSWIRQTPGTRLEWVATISSGGYYTYYEDNVKGRFIISRDNAKNTLDLQMSGLKSEDAATYYCARRGNYDVDYYAMDYWGQGTSVIVSS VL: DVVLTQIPLSLPVSLGDQASISCRSSQSLEHSNGNTYLHWYLQKPGQSPKLLIYKVSNRFSGVPDRFSGSGSGTDFTLKISRVEAEDLGVYFCSQSTHVPPWTFGGGTKLEFKR

>  <relative binding activity (% of WT) / %>
2

$$$$

Reported relative binding activity (% of WT) for murine monoclonal antibody 1F10 (antibody, mouse IgG1, V domains shown, Mouse IgG1, lambda 1, from hybridoma; also called m338-1F10.3) VH: EVKLLESGGGLVQPGGSLKLSCAASGFDFSRYWMSWVRQAPGKGLEWIGEINPDSSTMNYTPSLKDKFIISRDNAKNTLYLQMSKVRSEDTALYYCARGAYAMDYWGQGTSVTVSS VL: QAVVTQESALTTSPGETVTLTCRSSTGAVTTSNNANWVQEKPDHLFTGLIGATNNRAPGVPARFSGSLIGDKAALTITGAQTEDEAIYFCALWYINHWVFGGGTKLTVLG : what is it?
1

Reported relative binding activity (% of WT) for murine monoclonal antibody 1G10 (antibody, mouse IgG1, V domains shown, Mouse IgG1, kappa, from hybridoma; also called m290-1G10) VH: QIQLVQSGPELKKPGETVKISCKASGYTFTNYGMNWVKQAPGKGFKWMGWINTYTGEPTYADDFKGRFAFSLETSASTAYLQINNLQNEDMATYFCARWGYDFDYWGQGTTLTVSS VL: QIVLTQSPAIMSSSPGEKVTMTCSASSSISYMNWYQQKPGTSPKRWIYDTSKLASGVPARFSGSGSGTSYSLTISSMEAEDAATYYCHQRSSYPYTFGGGTKLEIKR : what is it?
95
